Test system: NCI-H460 lung
Test: NCI tumour cell line growth inhibition, 48 h
Listed next: entries and their corresponding TGI.

[
  {
    "inputSmiles": "CCCN=C(NC(=O)c1ccc(Cl)cc1)SC",
    "TGI": "> 100 µM"
  },
  {
    "inputSmiles": "Cc1ccc(C(=O)/C=C/c2ccccc2O)c(C)c1",
    "TGI": "> 100 µM"
  }
]

Let us move to another entry and its TGI.
Quick one: TGI of CN(CCCNc1ccc2ncn3c4ccccc4c(=O)c1c23)CCCN1C(=O)c2cccc3cc([N+](=O)[O-])cc(c23)C1=O ?
0.0224 µM

====

Listed next: entries and their corresponding TGI.
Tested on: A498 renal
Test: NCI tumour cell line growth inhibition, 48 h

Known TGI results, listed for orientation:
[
  {
    "compound": "CC(=O)NNc1nc(C)c(C(/C=C/c2cccc([N+](=O)[O-])c2)=N/NC(=S)NN)s1",
    "TGI": "> 100 µM"
  },
  {
    "compound": "Cc1[nH]c(=O)[nH]c(=S)c1C(=O)NC(C)(CO)CO",
    "TGI": "> 100 µM"
  },
  {
    "compound": "CCc1cccc(C)c1NC(C)=O",
    "TGI": "> 100 µM"
  },
  {
    "compound": "CCOC(=O)NC(=O)c1cn(CCCOC(=O)NCCCCCCNC(=O)OCCCn2c(=O)c(C(=O)NC(=O)OCC)cn(C)c2=O)c(=O)n(C)c1=O",
    "TGI": "> 100 µM"
  }
]

Give the reported TGI for O=C1NNC(=O)C2C3c4ccccc4C(c4ccccc43)C12 (centres undefined) (system: A498 renal).
> 100 µM

Next entry: COc1cc2c(c(OC)c1OC)-c1ccc(SC)c(=O)cc1C(CC(=O)Oc1ccc([N+](=O)[O-])cc1)C2 (centres undefined)
0.571 µM

Next entry: COc1ccc2c(c1)OCc1c-2oc2ccccc2c1=O
> 100 µM

Next entry: Nc1c(-c2ccc(Br)cc2)[n+]([O-])c2ccccc2[n+]1[O-]
> 100 µM

Next entry: COC(=O)C(=O)C(C(=O)C=C(C)C)C(=O)C(=O)Nc1ccc(Cl)cc1C (centres undefined)
> 100 µM

Next entry: Cn1cc(C2=C(c3cn(C)c4c(N)cccc34)C(=O)NC2=O)c2ccccc21
4.29 µM

Next entry: CC1=CC(=O)NP(=O)(Oc2ccc(C)cc2)N1 (centres undefined)
> 100 µM

Next entry: COc1ccc(OC(=O)O[C@H]2[C@H](O[C@H]3[C@@H](O)COC(O[C@H]4C[C@H]5[C@@H]6CC=C7C[C@@H](O)CC[C@]7(C)[C@H]6CC[C@]5(C)[C@H]4[C@H](C)C(=O)CCC(C)C)[C@@H]3OC(C)=O)OC[C@@H](O)[C@@H]2O)cc1 (some centres undefined)
0.0559 µM

Next entry: CC(=O)c1ccc(NC(=O)/C(Cc2ccccn2)=N/NC(=O)C[N+](C)(C)C)cc1
> 100 µM

Next entry: CCOC(=O)/C(O)=C(/C=NC(=S)c1ccncc1)C(=O)OCC
> 100 µM

Next entry: C=C1CC[C@@]2(OC1)OC1C[C@H]3[C@@H]4CC=C5C[C@@H](O)CC(OC6OCC(OC(=O)[C@@H](O)[C@@H](C)CC)C(OC(C)=O)C6OC6OC(C)C(O)C(O)C6O)[C@]5(C)[C@H]4CC[C@]3(C)C1[C@@H]2C (some centres undefined)
3.44 µM

Next entry: O=c1[nH]c(=O)n(C2CC(O)C(CS)O2)cc1F (centres undefined)
> 86.2 µM

Next entry: CNC(=O)N1CCN(C(=O)NC)CCN(C(=O)NC)CC1
> 100 µM

Next entry: Cc1cccc(C(C)(C)C)c1NC(=O)CCc1n[nH]c(=S)o1
> 100 µM

Next entry: N#CCCN(c1ccc(/C=C2\N=C(c3ccc(Cl)cc3)OC2=O)cc1)S(=O)(=O)c1ccccc1
> 100 µM

Next entry: O=C(NC1CCCCCC1)C1C(=O)N(C2CCCCCC2)C(=O)/C1=N\O (centres undefined)
80.4 µM

Next entry: CCC1c2[nH]c3ccccc3c2C[C@H]2C(=O)NC(CCC(=O)OC(C)(C)C)C(=O)N12 (some centres undefined)
> 100 µM

Next entry: CCCCn1c(C)c(C(=O)OCC)c2cc(OCc3ccc(C(=O)Nn4c(C)ccc4C)cc3)c(Br)cc21
> 100 µM

Next entry: O=C(O)c1cc(N=Nc2ccc([As](=O)(O)O)cc2)ccc1O
> 100 µM

Next entry: Brc1ccc2c(-c3nc(-c4c[nH]c5ccc(Br)cc45)cs3)c[nH]c2c1
11.8 µM
